Biological target: T1, beta-catenin in DLD1 TCF/LEF luciferase reporter cells (UniProt P35222 1-781)
T1 sequence (looked up): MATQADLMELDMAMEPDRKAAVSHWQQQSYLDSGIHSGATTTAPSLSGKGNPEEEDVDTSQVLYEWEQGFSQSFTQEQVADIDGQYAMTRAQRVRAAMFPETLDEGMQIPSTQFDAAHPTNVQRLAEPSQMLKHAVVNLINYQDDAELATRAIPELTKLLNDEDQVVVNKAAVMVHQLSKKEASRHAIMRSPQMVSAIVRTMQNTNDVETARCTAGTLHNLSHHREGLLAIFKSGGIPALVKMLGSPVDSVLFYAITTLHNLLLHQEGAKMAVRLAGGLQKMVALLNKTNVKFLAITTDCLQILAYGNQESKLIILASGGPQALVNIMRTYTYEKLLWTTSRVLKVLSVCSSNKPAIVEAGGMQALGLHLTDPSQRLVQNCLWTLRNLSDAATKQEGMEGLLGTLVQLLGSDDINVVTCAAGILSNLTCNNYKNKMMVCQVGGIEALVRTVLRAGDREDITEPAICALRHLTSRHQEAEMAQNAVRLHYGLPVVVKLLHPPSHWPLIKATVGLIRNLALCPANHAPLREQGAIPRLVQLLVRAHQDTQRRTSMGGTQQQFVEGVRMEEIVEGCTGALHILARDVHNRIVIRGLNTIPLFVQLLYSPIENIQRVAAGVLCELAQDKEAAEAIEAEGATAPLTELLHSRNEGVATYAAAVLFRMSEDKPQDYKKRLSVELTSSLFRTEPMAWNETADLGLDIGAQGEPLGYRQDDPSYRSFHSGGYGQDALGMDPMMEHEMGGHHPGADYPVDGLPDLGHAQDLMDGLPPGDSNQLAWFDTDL
Assay: cell-based or functional assay
Starred links: 1 amine or outer side, 2 acyl side, 3 side chain; linkers in the order of their positions; H or OH if unused. Positions of bridges follow the written chain, without caps; N, C: chain ends. Non-standard residues stand in square brackets, D forms with d. Primed or numbered codes have the meaning given here. PyrS2″ = (S)-3-amino-1-((pent-4-en-1-yloxy)carbonyl)pyrrolidine-3-carboxylic acid (stapling residue), C=CCCCOC(=O)N1CC[C@@](N[*:1])(C(=O)[*:2])C1; PyrS2 = (S)-3-amino-1-((pent-4-en-1-yloxy)carbonyl)pyrrolidine-3-carboxylic acid, C=CCCCOC(=O)N1CC[C@@](N[*:1])(C(=O)[*:2])C1; B5(3) = 2,2-bis(4-pentenyl)glycine (stitching residue), C=CCCCC(CCCC=C)(N[*:1])C(=O)[*:2]; B5 = 2-amino-2-(pent-4-en-1-yl)hept-6-enoic acid, C=CCCCC(CCCC=C)(N[*:1])C(=O)[*:2]; Bta = N[C@@H](Cc1csc2ccccc12)C(=O)O; αAllylPro = C=CC[C@@]1(C(=O)O)CCCN1; tBuAla = CC(C)(C)C[C@H](N)C(=O)O; 3Thi = N[C@@H](Cc1ccsc1)C(=O)O; hSer = N[C@@H](CCO)C(=O)O
PARAMETER MEASURED: DLD1 4% Abs IC50 (µM)
Number in µM, nothing else.

Ac-[αAllylPro]D[tBuAla][B5]DDAAFN[PyrS2″][3Thi][Bta]T-NH2 (staple 1-4, 4-11) [I-814]	16.5
Ac-[αAllylPro]D[tBuAla][B5]DDAAFN[PyrS2″][3Thi][Bta]S-NH2 (staple 1-4, 4-11) [I-815]	10.3
Ac-[αAllylPro]D[tBuAla][B5(3)]DDAAF[hSer][PyrS2″][3Thi][Bta]Q-NH2 (staple 1-4, 4-11) [I-803]	9
Ac-[αAllylPro]D[tBuAla][B5]DDAAFL[PyrS2][3Thi][Bta]Q-NH2 (staple 1-4, 4-11) [I-801]	4.3

In the following, a different binder is considered.
Data point: Ac-[αAllylPro]D[tBuAla][B5(3)]DDAAFT[PyrS2″][3Thi][Bta]Q-NH2 (staple 1-4, 4-11) [I-809] ; DLD1 4% Abs IC50 = 11.3
